Measured pKd, listed per entry.
Biological target: T1, cyno CCL17 (Macaca fascicularis (cyno), UniProt Q8HYP9 24-94 (rhesus entry))
T1 construct: Biotinylated in the Fab ELISAs; also called cCCL17; cCCL-17
T1 sequence: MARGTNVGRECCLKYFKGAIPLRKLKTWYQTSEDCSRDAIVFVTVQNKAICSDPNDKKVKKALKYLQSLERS
Experiment: solution equilibrium affinity (MSD-SEA), IgG1
Lab note — pKd values are minus log10 of concentrations in M.

>  <binder>
C17B260 (antibody, IgG1, V domains shown, Expressed as IgG1; Light chain N50G (Kabat) variant of C17B234) VH: EVQLVQSGAEVKKPGESLKISCKGSGYSFTSYWIGWVRQMPGKGLEWMGIIDPSDSDTRYSPSFQGQVTISADKSISTAYLQWSSLKASDTAMYYCARVGPADVWDSFDYWGQGTLVTVSS VL: DIVMTQSPDSLAVSLGERATINCKSSQSVLLSFDNINKLAWYQQKPGQPPKLLIYGASTRESGVPDRFSGSGSGTDFTLTISSLQAEDVAVYYCQQFYSVPSTFGQGTKVEIK

>  <pKd>
10.44

$$$$
>  <binder>
C17B264 (antibody, IgG1, V domains shown, Expressed as IgG1; Light chain N50I (Kabat) variant of C17B234) VH: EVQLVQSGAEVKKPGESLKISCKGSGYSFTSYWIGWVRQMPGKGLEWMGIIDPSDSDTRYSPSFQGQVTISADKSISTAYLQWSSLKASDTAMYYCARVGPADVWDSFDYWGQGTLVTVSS VL: DIVMTQSPDSLAVSLGERATINCKSSQSVLLSFDNINKLAWYQQKPGQPPKLLIYIASTRESGVPDRFSGSGSGTDFTLTISSLQAEDVAVYYCQQFYSVPSTFGQGTKVEIK

>  <pKd>
10.14

$$$$

Exercise: Any idea what pKd was measured for C17B295 (antibody, IgG1, V domains shown, Expressed as IgG1; Heavy chain D100bE (Kabat) paired with the light chain of C17B258) VH: EVQLVQSGAEVKKPGESLKISCKGSGYSFTSYWIGWVRQMPGKGLEWMGIIDPSDSDTRYSPSFQGQVTISADKSISTAYLQWSSLKASDTAMYYCARVGPADVWESFDYWGQGTLVTVSS VL: DIVMTQSPDSLAVSLGERATINCKSSQSVLLSFDNINKLAWYQQKPGQPPKLLIYDASTRESGVPDRFSGSGSGTDFTLTISSLQAEDVAVYYCQQFYSVPSTFGQGTKVEIK ?
Key: 7.52

Measured values drawn from patent US20220348647A1 for this set.
